relative inhibition cathepsin B exopeptidase values by entry
Target: cathepsin B (exopeptidase activity) (Homo sapiens, UniProt P07858)
Construct: made in house; host or cells: E. coli
Assay: Relative inhibition of cathepsin B exopeptidase activity
Assay type: biochemical
Details: 50 μM; substrate Abz-Gly-Ile-Val-Arg-Ala-Lys-(Dnp)-OH; pH 5.0

Use the examples below as a reference point.
> print(dat)
                                   compound  value.observed
1  N#Cc1ccccc1.[C-]#[O+].[C-]#[O+].[C-]#[O+].[O-]n1ccccc1=S.[Re+] [complex 4, fac-[Re(CO)3(pth)(benzonitrile)]]     37.5 ± 2.1%
2  Cc1ccc(C(C)C)cc1.[Cl-].[O-][n+]1ccccc1[S-].[Ru+2] [[Ru(cym)(pth)Cl]]      5.4 ± 7.2%

Turning now to a further compound:
Provide relative inhibition cathepsin B exopeptidase value for the following compound: [C-]#[O+].[C-]#[O+].[C-]#[O+].[C-]#[O+].[C-]#[O+].[Cl][Re] [[Re(CO)5Cl], rhenium(I) pentacarbonyl chloride]
12.2 ± 3.0%

* * *

Biological target: cathepsin B (exopeptidase activity) (Homo sapiens, UniProt P07858)
Test: Determination of inhibition constants, cathepsin B exopeptidase activity
Conditions: substrate Abz-GIVRAK(Dnp)-OH; mixed inhibition; read-out: Ki (dissociation of enzyme–inhibitor complex), exopeptidase activity
ENDPOINT_NAME: Ki (µM)
Unit µM implied. Number only.

Answer with the recorded Ki for the compound listed here: N#Cc1ccccc1.[C-]#[O+].[C-]#[O+].[C-]#[O+].[O-]n1ccccc1=S.[Re+] [complex 4, fac-[Re(CO)3(pth)(benzonitrile)]]
165
